Assay: yeast display, Sf9 membrane polyspecificity reagent, FACS + sequencing; frameworks hold sequencing errors
Reported Property: polyreactivity (PSR sort gate)

1. QVQLVESGGGLVQAGGSLRLICAASGRTFRYYAMGWYRQAPGKERELVAAITTGSSTYYADSVKGRFTISRDNAKNTVYLQMNSLKPEDTAVYYCNVFQGTRYGYWGQGTQVTVSS: low polyreactivity
2. QVQLVESGGGLVQAGGSLRLSCAASGRTSAKYAMGWYRQAPGKERELVAVITKNSGSTYYADSVKGRFTISRDNAKNTVYLQMNSLKPEDTAVYYCNRVPRGINRQSRPEDYWGQGTQVTVSS: high polyreactivity
3. QVQLVESGGCLVQAGCSLRLSCAASGGTFDVNAMGWYRQAPGKERELVAAITWSGGNTYYADSVKGRFTISRDNAKNTVYLQMNSLKPEDTAVYYCATDFSPVYYTRYDYWGQGTQVTVSS: low polyreactivity
4. QVKLVESGGGLVQAGGSLRLSCAASGLTFRSYAMRWYRQAPGKERELVAAITRSGGSTYYADSVKGRFTISRDNAKNTVYLQMNRLKPEDTAVYYCAADYGRTLTGGDYWGQGTKVTVSS: high polyreactivity
5. HVQLVESGGGLVQAGGSLRISCAASGRTLEQYAMGWYRQAPGKERELVAAINKSGARTYYADSVKGRFTISRDNAKNTVYLQMNSLKPEDTAVYYCNTVGPCYLFDYWGQGTQVTVSS: high polyreactivity

query: Look up polyreactivity (PSR sort gate) for this sequence: `QVQLVESGGGLVQAGGSHRLSCAASGSIFALYAMGWYREAPGKEREFVAAISWNGGRTYYADSVKGRFTISRDNAKNTVYLQMNSLKPEDTAVYYCAARSWYAYDYWGQGTQVTVSS`
result: high polyreactivity

query: I have this sequence here, `QVQLVESGGGLVQAGGSLRLSCAASGSTFLRNDMGWYRQAPGKERELVAAITSGGITNYADSVKGRFTISRDNAKNTVSLQMNSLKPEDTAVYYCNKDSDLHHYHTEFDYWGQGTQVTVSS` , and I need its recorded polyreactivity (PSR sort gate).
result: low polyreactivity

query: What value of measured polyreactivity (PSR sort gate) is listed for `QVQLVESGGGLVQAGGSLRLSCAASGRIFWPYAMGWSRQAPGKERELVAAITSGGSTYYADSVKGRFTISRDNAKNTVYLQMNSLKPEDTAVYYCAKRSSGVSVPVAYGGIKRYNSWGQGTQVTVSS` ?
result: low polyreactivity

----------
Assay: yeast display, Sf9 membrane polyspecificity reagent, FACS + sequencing; frameworks hold sequencing errors
Reported Property: polyreactivity (PSR sort gate)

# example entries with known answers
1. QVQLVESGGGLVQAGGSLRLSCAASGRTLRYYAMGWYRQAPGKERELVAAITSSDRTYYADSVKGRFTISRDNAKNTVYLQMNSLKPEVTAVYYCAAYRATQFGYYYWGQGTQVTVSS: high polyreactivity
2. QVQLVESGGGLVQAGGSLRLSCAASGFIFWTYAMGWYRQAPGKERELVARISWSGGSTYYADSVKGRFTISRDNAKNTVYLQMNSLKPEDTAVYYCARLATLYESIEYDYWGHGTQVTVSS: low polyreactivity
3. QVQLVESGGGLDQAGGSLRLSSAASGRIFSKSAMGLYRQAPGKETELVAAMTSGGRTYYADSVKGRFTISRDIAKNTVYLQMNSLKPEDTAVYYCAARYVQVVRKFGYWVQGTQVTVSS: high polyreactivity
4. QVQLVESGGGLVQAGGSLRLSCAASGITSKQYAMGWYRQAPGKEWELVAAISGSGTRTYYADSVKGRFTISRDNAKNTVYLQMNSQKPEDTAVYYCAAYYHLVVKRLRYDYWGQGTQVTVSS: high polyreactivity
5. QVQLVETVGGLLQAGGSLRLSCPASGSTLYYNTMGWYRQAPGKERELVATISSRGGRTHYADSVKGRFTISRDNAKNTVYLQMNSLKPEDTAVYYCNALPRVVYTVGQSPFYYWGQGTQVTVSS: high polyreactivity
6. QVQLVESGGGLVQAGGSLRLSCADSGSTFSPDAMGWYIQAPGKERALVAAIRYSGTSTYYADSVKGRFTISRDNAKKTVYLQMNSLKPEDTAVYYCNTVFKYQGVRPYGYWGQGTQVTVSS: high polyreactivity

query: Please report the recorded polyreactivity (PSR sort gate) for `QVQLVESGGGLVQAGGSLRLSCAASGRIFNYYAMGWYRQAPGKERELVAAINSGGSTYADSVKGRFTISRDNAKNTVYLQMNSLKPEDTAVYYSAKDGQLQSGRERPSGYDHWGQGTQVTVSS` .
result: low polyreactivity

query: Item `QFQLVESGGGLVQAGCSLRLSCAASGGTFGLYAMGWYRQAPGKERELVAANTWSDSSTYYADSVKGRFTISRDNAKNTVYLQMNSLKPEDNAVYYCAADYGDADTWWPSAEYHSGRDYWGQGTQVTVSS` has what recorded polyreactivity (PSR sort gate)?
result: low polyreactivity

query: Any idea what polyreactivity (PSR sort gate) was measured for `QVQLVESGGGLVQAGGSLRLSCAASGSTFVPYTMGWYRQAPGKERELVAAMSGSGGTDYADSVKGRFTISRDNAKNTVYLQMNSLKPEDTAVYYCATDGLDFWFIYDYWGQGTQVTVSS` ?
result: low polyreactivity

query: Could you tell me which polyreactivity (PSR sort gate) is on file for `QVQLVESGGGLVQAGGSLRLSCAASGSTFEAYAMGWYRQAPGKERELVAAIRSSGSTSYADSVKGRFTISRDNAKNTVYLQMNSLKPVDTAVYYCAARVRGYPRYKRDYWGQGTQVTVSS` ?
result: high polyreactivity
